So I've got a bunch of sequences here, and I need their shrunken log2 fold change values.
# Test system: Escherichia coli TOP10
# Assay Comment: shrunken log2 fold change of peptide-encoding DNA abundance (4.5 h post-induction vs induction); higher = less antimicrobial activity (less host growth inhibition)
# Condition Details: time post-induction: 4.5 h; library: site-saturation at positions 5, 18, 19, 20
The answer should be written as a number, with no unit following it.

Query :: Quick one: shrunken log2 fold change for RRIRQRPPRLPRPRPRPADKPRP ?
Result :: -0.137

Query :: Quick one: shrunken log2 fold change for RRIRSRPPRLPRPRPRPWRLPRP ?
Result :: 0.0899

Query :: Quick one: shrunken log2 fold change for RRIRYRPPRLPRPRPRPAALPRP ?
Result :: -0.478

Query :: Quick one: shrunken log2 fold change for RRIRARPPRLPRPRPRPSYCPRP ?
Result :: -0.311

Query :: Quick one: shrunken log2 fold change for RRIRKRPPRLPRPRPRPHITPRP ?
Result :: -0.167

Query :: Quick one: shrunken log2 fold change for RRIRQRPPRLPRPRPRPFMVPRP ?
Result :: -0.686

Query :: Quick one: shrunken log2 fold change for RRIRDRPPRLPRPRPRPSDVPRP ?
Result :: -0.022

Query :: Quick one: shrunken log2 fold change for RRIRFRPPRLPRPRPRPMMIPRP ?
Result :: -0.018

----------
So I've got a bunch of sequences here, and I need their shrunken log2 fold change values.
# Tested on: Escherichia coli TOP10
# Assay Comment: shrunken log2 fold change of peptide-encoding DNA abundance (4.5 h post-induction vs induction); higher = less antimicrobial activity (less host growth inhibition)
# Condition Details: time post-induction: 4.5 h; library: site-saturation at positions 5, 18, 19, 20

Query :: Quick one: shrunken log2 fold change for RRIRMRPPRLPRPRPRPMRMPRP ?
Result :: 0.759

Query :: Quick one: shrunken log2 fold change for RRIRYRPPRLPRPRPRPTGIPRP ?
Result :: -0.114

Query :: Quick one: shrunken log2 fold change for RRIRLRPPRLPRPRPRPHILPRP ?
Result :: -0.0127

Query :: Quick one: shrunken log2 fold change for RRIRLRPPRLPRPRPRPCMLPRP ?
Result :: -0.398

Query :: Quick one: shrunken log2 fold change for RRIRPRPPRLPRPRPRPDGVPRP ?
Result :: 0.14

Query :: Quick one: shrunken log2 fold change for RRIRGRPPRLPRPRPRPYCIPRP ?
Result :: 0.174

Query :: Quick one: shrunken log2 fold change for RRIRSRPPRLPRPRPRPPAQPRP ?
Result :: 0.922

Query :: Quick one: shrunken log2 fold change for RRIRLRPPRLPRPRPRPHEPPRP ?
Result :: -0.0213

----------
So I've got a bunch of sequences here, and I need their shrunken log2 fold change values.
# Tested on: Escherichia coli TOP10;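 further: peptides expressed intracellularly from a pBAD plasmid library in pooled LB shake-flask culture, induced with 0.3% L-arabinose, DNA abundance read by NGS, three biological replicates, DESeq2 with apeglm shrinkage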
# Assay Comment: shrunken log2 fold change of peptide-encoding DNA abundance (4.5 h post-induction vs induction); higher = less antimicrobial activity (less host growth inhibition)
# Condition Details: time post-induction: 4.5 h; library: site-saturation at positions 5, 18, 19, 20
The answer should be written as a number, with no unit following it.

Query :: Quick one: shrunken log2 fold change for RRIRTRPPRLPRPRPRPCSTPRP ?
Result :: -0.11

Query :: Quick one: shrunken log2 fold change for RRIRLRPPRLPRPRPRPNFPPRP ?
Result :: -0.00674

Query :: Quick one: shrunken log2 fold change for RRIRIRPPRLPRPRPRPDFSPRP ?
Result :: -0.175

Query :: Quick one: shrunken log2 fold change for RRIRWRPPRLPRPRPRPMIWPRP ?
Result :: 0.0116

Query :: Quick one: shrunken log2 fold change for RRIRIRPPRLPRPRPRPEVGPRP ?
Result :: 0.0138

Query :: Quick one: shrunken log2 fold change for RRIRNRPPRLPRPRPRPSTVPRP ?
Result :: -0.103

Query :: Quick one: shrunken log2 fold change for RRIRKRPPRLPRPRPRPEVKPRP ?
Result :: 0.085

Query :: Quick one: shrunken log2 fold change for RRIRDRPPRLPRPRPRPDIDPRP ?
Result :: -0.012
